Target: recombinant N-terminal GST-tagged human Rho kinase 1 (ROCK1, amino acids 1-535) (Homo sapiens, UniProt Q13464)
Construct: ROCK1, amino acids 1-535; purchased Invitrogen Inc. PV-3691
Sequence (Q13464 1-535): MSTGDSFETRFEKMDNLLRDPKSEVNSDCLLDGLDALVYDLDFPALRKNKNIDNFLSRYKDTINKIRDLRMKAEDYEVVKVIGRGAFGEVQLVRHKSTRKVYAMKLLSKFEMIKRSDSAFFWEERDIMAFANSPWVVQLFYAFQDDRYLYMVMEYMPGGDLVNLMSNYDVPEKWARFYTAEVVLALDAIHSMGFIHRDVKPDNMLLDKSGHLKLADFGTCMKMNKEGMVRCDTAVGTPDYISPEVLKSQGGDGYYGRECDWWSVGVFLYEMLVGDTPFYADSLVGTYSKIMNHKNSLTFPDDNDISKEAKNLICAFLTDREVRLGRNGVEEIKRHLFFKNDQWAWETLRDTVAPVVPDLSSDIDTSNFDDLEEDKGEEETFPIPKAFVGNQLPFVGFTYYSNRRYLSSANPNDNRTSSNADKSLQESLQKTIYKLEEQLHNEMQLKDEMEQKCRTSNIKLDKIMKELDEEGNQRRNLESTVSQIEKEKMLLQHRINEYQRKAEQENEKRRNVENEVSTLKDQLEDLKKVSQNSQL
Assay: In vitro Rho kinase assay (luciferase-based ATP consumption), ROCK1
Format: biochemical
Settings: recombinant GST-tagged human ROCK1, luciferase-based ATP consumption; read-out: ROCK1 IC50
measurement label: IC50

Example cases with answers are listed next.
molecule: Cc1c(-c2ccnc(N)n2)sc2ccc(CNC(=O)c3ccccc3Cc3ccccc3)cc12
measurement label: IC50
assay value: > 5 µM
--
molecule: CCC(=O)C(=O)NCc1ccc2sc(-c3ccnc(N)n3)c(C)c2c1
measurement label: IC50
assay value: < 5 µM

Query IC50 for Cc1c(-c2ccnc(N)n2)sc2ccc(CNC(=O)C(C)O)cc12 (centres unmarked)
> 5 µM

Return reported IC50. Input molecule: Cc1c(-c2ccnc(N)n2)sc2ccc(CNC(=O)c3cccc([N+](=O)[O-])c3)cc12
< 5 µM

Output IC50 of Cc1c(-c2ccnc(N)n2)sc2ccc(CNC(=O)C(C)c3cccc(C(=O)c4ccccc4)c3)cc12 (centres unmarked)
> 5 µM

###

Biological target: recombinant N-terminal GST-tagged human Rho kinase 2 (ROCK2, amino acids 1-552) (Homo sapiens, UniProt O75116)
Construct: ROCK2, amino acids 1-552; purchased Invitrogen Inc. PV3759
Sequence (O75116 1-552): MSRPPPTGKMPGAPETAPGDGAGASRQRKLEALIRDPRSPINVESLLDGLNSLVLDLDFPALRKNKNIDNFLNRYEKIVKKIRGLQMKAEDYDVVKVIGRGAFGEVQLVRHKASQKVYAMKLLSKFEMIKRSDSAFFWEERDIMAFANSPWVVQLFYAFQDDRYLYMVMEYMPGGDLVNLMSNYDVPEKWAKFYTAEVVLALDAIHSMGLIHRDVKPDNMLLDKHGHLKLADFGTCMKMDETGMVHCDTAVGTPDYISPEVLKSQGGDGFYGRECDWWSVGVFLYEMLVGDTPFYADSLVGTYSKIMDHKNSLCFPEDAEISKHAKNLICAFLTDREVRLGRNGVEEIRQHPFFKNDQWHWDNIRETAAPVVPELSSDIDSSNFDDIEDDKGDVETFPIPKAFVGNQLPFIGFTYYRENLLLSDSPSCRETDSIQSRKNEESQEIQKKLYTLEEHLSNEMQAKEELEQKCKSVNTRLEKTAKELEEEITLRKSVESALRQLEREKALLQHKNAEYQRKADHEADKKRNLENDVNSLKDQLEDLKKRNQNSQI
Experiment: In vitro Rho kinase assay (luciferase-based ATP consumption), ROCK2
Format: biochemical
Conditions: recombinant GST-tagged human ROCK2, luciferase-based ATP consumption; read-out: ROCK2 IC50
pIC50: −log10 of the molar value.
measurement label: pIC50

molecule: COC[C@@H]1CCCN1C(=O)c1ccc2sc(-c3ccnc(N)n3)c(C)c2c1
pIC50: < 5.30

molecule: Cc1c(-c2ccnc(N)n2)sc2ccc(C(=O)N3CCC(N)C3)cc12 (centres unmarked)
pIC50: > 5.30

molecule: CC(=O)c1cccc(C(=O)NCc2ccc3sc(-c4ccnc(N)n4)c(C)c3c2)c1
pIC50: > 5.30

molecule: COc1cccc(Cc2ccc3sc(-c4ccnc(N)n4)c(C)c3c2)c1
pIC50: > 5.30

Now for the molecule whose pIC50 we want.
Answer with reported pIC50 of Cc1c(-c2ccnc(N)n2)sc2ccc(C(=O)N3CC(C)OC(C)C3)cc12 (centres unmarked)
> 5.30

###

Target: recombinant N-terminal GST-tagged human Rho kinase 2 (ROCK2, amino acids 1-552) (Homo sapiens, UniProt O75116)
Construct: ROCK2, amino acids 1-552; purchased Invitrogen Inc. PV3759
Experiment: In vitro Rho kinase assay (luciferase-based ATP consumption), ROCK2
Format: biochemical
Conditions: recombinant GST-tagged human ROCK2, luciferase-based ATP consumption; read-out: ROCK2 IC50
measurement label: IC50

Sample records with IC50:
compound: Cc1c(-c2ccnc(N)n2)sc2ccc(C(=O)N3CCC(C(N)=O)CC3)cc12
IC50: > 5 µM
//
compound: Cc1c(-c2ccnc(N)n2)sc2ccc(CNC(=O)c3cc(Cl)ccc3O)cc12
IC50: < 5 µM
//
compound: Cc1c(-c2ccnc(N)n2)sc2ccc(CNC(=O)c3ccccn3)cc12
IC50: < 5 µM
//
compound: Cc1c(-c2ccnc(N)n2)sc2ccc(C(=O)N3CCN(c4ccccc4Cl)CC3)cc12
IC50: > 5 µM
//
compound: Cc1c(-c2ccnc(N)n2)sc2ccc(C(=O)N3CCCC4CCCCC43)cc12 (stereo not drawn)
IC50: > 5 µM
//
compound: Cc1c(-c2ccnc(N)n2)sc2ccc(C(=O)c3ccccc3)cc12
IC50: < 5 µM
//
compound: Cc1c(-c2ccnc(N)n2)sc2ccc(CNC(=O)c3c(F)cccc3F)cc12
IC50: < 5 µM
//
compound: Cc1c(-c2cc(N)ncn2)sc2ccc(Cl)cc12
IC50: > 5 µM

Indicate its recorded IC50; the compound in question is Cc1c(-c2ccnc(N)n2)sc2ccc(Cc3cccc(OCCN(C)C)c3)cc12
< 5 µM

Retrieve IC50 measured for Cc1c(-c2ccnc(N)n2)sc2ccc(C(=O)N(CCO)[C@H](C)c3ccccc3)cc12 and print it.
< 5 µM

Respond only with IC50 recorded for COC(=O)c1cccc(Sc2ccc3sc(-c4ccnc(N)n4)c(C)c3c2)c1
< 5 µM

Provide measured IC50 value, entry: Cc1c(-c2ccnc(N)n2)sc2ccc(C(=O)N(C)CC(O)c3ccc(O)cc3)cc12 (stereo not drawn)
< 5 µM

Check the records and state IC50 for Nc1nccc(-c2cc3ccccc3s2)n1
< 5 µM

Look up and state reported IC50 for COc1ccc(CNC(=O)c2ccc3sc(-c4ccnc(N)n4)c(C)c3c2)cc1OC
< 5 µM

Supply measured IC50 of Cc1c(-c2ccnc(N)n2)sc2ccc(CNC(=O)c3ccc(F)c(F)c3)cc12 in your reply.
< 5 µM

Output measured IC50 for this item: COCCNC(=O)c1ccc2sc(-c3ccnc(N)n3)c(C)c2c1
< 5 µM

Please supply the value of reported IC50 for the item Cc1ccccc1CC(=O)NCc1ccc2sc(-c3ccnc(N)n3)c(C)c2c1
< 5 µM

State, in one line, measured IC50 of COc1ccccc1Cc1ccc2sc(-c3ccnc(N)n3)c(C)c2c1
> 5 µM

Provide measured IC50 value, entry: COc1cccc(N2CCN(C(=O)c3ccc4sc(-c5ccnc(N)n5)c(C)c4c3)CC2)c1
> 5 µM

# return recorded IC50 for entry Cc1c(-c2ccnc(N)n2)sc2ccc(C(=O)N(C)Cc3cccc4ccccc34)cc12
> 5 µM

###

pIC50 by entry:
Target: recombinant N-terminal GST-tagged human Rho kinase 1 (ROCK1, amino acids 1-535) (Homo sapiens)
Construct: ROCK1, amino acids 1-535; purchased Invitrogen Inc. PV-3691
Assay: In vitro Rho kinase assay (luciferase-based ATP consumption), ROCK1
Format: biochemical
Conditions: recombinant GST-tagged human ROCK1, luciferase-based ATP consumption; read-out: ROCK1 IC50
pIC50: −log10 of the molar value.

In the examples that follow, each entry is paired with its recorded pIC50.
smiles data: Cc1c(-c2ccnc(N)n2)sc2ccc(Oc3ccccc3)cc12
pIC50: > 5.30
//
smiles data: Cc1ccccc1C(=O)NCc1ccc2sc(-c3ccnc(N)n3)c(C)c2c1
pIC50: < 5.30

Give the reported pIC50 for this compound. Cc1c(-c2ccnc(N)n2)sc2ccc(CNC(=O)Cc3ccc(O)c(F)c3)cc12
> 5.30

###

The entries below come with measured IC50 values attached.
Molecular target: recombinant N-terminal GST-tagged human Rho kinase 2 (ROCK2, amino acids 1-552) (Homo sapiens)
Construct: ROCK2, amino acids 1-552; purchased Invitrogen Inc. PV3759
Test: In vitro Rho kinase assay (luciferase-based ATP consumption), ROCK2
Format: biochemical
Conditions: recombinant GST-tagged human ROCK2, luciferase-based ATP consumption; read-out: ROCK2 IC50

These solved cases illustrate the format of a correct answer.
smiles data: Cc1c(-c2ccnc(N)n2)sc2ccc(CNC(=O)C3CCCCC3)cc12
measurement label: IC50
assay value: < 5 µM

smiles data: COc1cccc(CCc2ccc3sc(-c4ccnc(N)n4)c(C)c3c2)c1
measurement label: IC50
assay value: > 5 µM

From here, focus on the item given below.
Tell me measured IC50 for CC(=O)NCc1ccc2sc(-c3ccnc(N)n3)c(C)c2c1 please.
> 5 µM

###

Biological target: recombinant N-terminal GST-tagged human Rho kinase 2 (ROCK2, amino acids 1-552) (Homo sapiens)
Construct: ROCK2, amino acids 1-552; purchased Invitrogen Inc. PV3759
Test: In vitro Rho kinase assay (luciferase-based ATP consumption), ROCK2
Format: biochemical
Details: recombinant GST-tagged human ROCK2, luciferase-based ATP consumption; read-out: ROCK2 IC50
Method: In Vitro Rho Kinase Assay Rho kinase biochemical assays described below depend on firefly luciferase-based, indirect measurement of total ATP consumption by the kinase following incubation with substrate and ATP. […] After an additional 10 minute incubation at room temperature (about 22° C.), luminescence activity is measured on a Molecular Devices Analyst multi-mode plate reader or other suitable plate reader. […] Negative control activity is measured with DMSO lacking any test compound. […]
measurement label: IC50

molecule: Cc1c(-c2ccnc(N)n2)sc2ccc(C(=O)N3CCCC(CO)C3)cc12 (stereo not drawn)
IC50: < 5 µM
--
molecule: Cc1c(-c2ccnc(N)n2)sc2ccc(C(=O)N3CCC(NC(=O)OC(C)(C)C)C3)cc12 (stereo not drawn) [Example 22]
IC50: > 5 µM
--
molecule: Cc1c(-c2ccnc(N)n2)sc2ccc(C(=O)NC(C)C)cc12
IC50: > 5 µM
--
molecule: CC(=O)Oc1ccc(C(=O)NCc2ccc3sc(-c4ccnc(N)n4)c(C)c3c2)cc1
IC50: < 5 µM
--
molecule: COc1cc2c(cc1OC)CN(C(=O)c1ccc3sc(-c4ccnc(N)n4)c(C)c3c1)CC2
IC50: < 5 µM

Supply recorded IC50 for COc1ccc(O)c(C(=O)NCc2ccc3sc(-c4ccnc(N)n4)c(C)c3c2)c1 here.
< 5 µM

# return recorded IC50 for entry CCN(CC)CCN(Cc1ccccc1)C(=O)c1ccc2sc(-c3ccnc(N)n3)c(C)c2c1
< 5 µM

# return recorded IC50 for input CC(=O)Oc1cccc(C(=O)NCc2ccc3sc(-c4ccnc(N)n4)c(C)c3c2)c1
< 5 µM

For the molecule Cc1c(-c2ccnc(N)n2)sc2ccc(C(=O)N(CCO)Cc3ccccc3)cc12 , report IC50.
< 5 µM
